System: NCI-H522
Assay: NCI tumour cell line growth inhibition, 48 h
Activity calls are given as the source filed them. Cut-off read from the data, not from the text of the source: active = GI50 up to about 1.1 µM and inactive = higher.
Result category, one only: active, inactive

Please state the recorded outcome for this compound: CC(=O)OCC1OC(N2C(=O)[C@@H](Oc3ccccc3)[C@H]2/C=C/c2ccccc2)C(OC(C)=O)C(OC(C)=O)C1OC(C)=O (stereo partly drawn) inactive

Status in this test for "O=[N+]([O-])c1ccc(/C=N\N=c2/ccc([N+](=O)[O-])c[nH]2)cc1" ? inactive

For this compound, state the assay outcome: Cc1nn(C(=O)c2ccc(Cl)cc2)c2c1C(/C=C/c1ccccc1)SC(=N)N2 (stereo not drawn) inactive

Field: outcome | Entry: "CNC1=C(C)C(=O)C(O)=C([C@H](C)CCC=C(C)C)C1=O" inactive

For "CN1CSC(=S)N(c2cccc(C(F)(F)F)c2)C1" , what call appears in the results of this test? inactive

Assay outcome for "O=C(Nc1ccccc1)c1cc(S(=O)(=O)n2ccnc2O)c(S)cc1Cl" : what was it? inactive

// return assay outcome for CC1CC2C3CC(F)C4=CC(=O)C=CC4(C)C3(F)C(O)CC2(C)C1(O)C(=O)CO (stereo not drawn) inactive

Record lookup: outcome of this test for "C=C1C(=O)O[C@@H]2C[C@@H](C)[C@@H]3C=CC(=O)[C@@]3(C)[C@@H](OC(=O)CC(=O)O[C@H]3[C@@H]4C(=C)C(=O)O[C@@H]4C[C@@H](C)[C@@H]4C=CC(=O)[C@]43C)[C@H]12" ? active

---

Tested on: OVCAR-4
Test: NCI tumour cell line growth inhibition, 48 h
Activity calls are given as the source filed them. Rule as the data show it: active = GI50 up to about 1.1 µM and inactive = higher.
Bench note: report the call from active, inactive

Per the assay record, what outcome was assigned to CCOC(=O)CCC(NC(=O)c1ccc(/N=C/c2nc3cc(C(F)(F)F)ccc3nc2-c2ccccc2)cc1)C(=O)OCC (configuration not stated) ? inactive

// return assay outcome for CN1C=C(C(N)=O)C2CC(O)[C@@](NC(=O)CS(N)(=O)=O)(C(=O)O)C2C1 (some centres not stated) inactive

Outcome logged for "C/C(=N\Nc1ccc([N+](=O)[O-])cc1)C(=O)N(C)Nc1ccccc1" in this assay: inactive

Can you look up the reported call for CCCC1C(=O)Nc2cccc3ncn(c23)C1=O (configuration not stated) for me? inactive

Kindly provide the recorded test outcome for the following molecule: CC12CCC(C(Nc3ccccn3)C1=O)C2(C)C (configuration not stated) inactive

Which result was noted for this molecule in the test: "C[N+](C)(CCCCCC[N+](C)(C)CCCN1C(=O)c2cccc3cccc(c23)C1=O)CCCN1C(=O)c2cccc3cccc(c23)C1=O" inactive

Lab log entry: "CC/C(=N/O)c1ccc(Br)s1" — outcome as called in the assay? inactive

Could you please tell me the result logged for "COc1ccc(/C=C2\CCS(=O)(=O)c3ccccc3C2=O)cc1" in this assay? inactive

Any idea what this test logged for "Cc1cc(-c2c(Br)cc(C(=O)O)n2C)on1" ? inactive

Called result for "Nc1nc(O)nc2sc3c(c12)CCCC3" inactive

Which outcome was assigned to Cc1ccc(-c2nc3ccccc3c(=O)n2NC2OC(CO)C(O)C(O)C2O)cc1 (configuration not stated) in this test? inactive

For this molecule, state the assay outcome: CC12CCC3=C(CSC4=C3CSc3ccccc34)C1=CCCC2=O (configuration not stated) inactive

Would you mind telling me which call this test gave CN1C(=O)C23CC4=CC=CC(O)C4N2C(=O)C1(CO)SS3 (configuration not stated) ? active

Test call for this molecule, please: "Cn1c(=O)nc2n(-c3cccc(F)c3)c3ccccc3nc-2c1=O" inactive

Record lookup: outcome of this test for COC(=O)C1C(=O)N(CCc2c[nH]c3ccccc23)C[C@@H]2CCC(=O)C[C@H]12 (some centres not stated) ? inactive

Query: recorded result category for "N=C(N)n1ncc(Cl)c(Cl)c1=O" in this test inactive

What is the recorded call for this molecule in the test? "CCOC(=O)c1c(-c2ccccc2)[nH]c2ccc(Cl)cc2c1=O" inactive

Outcome? "c1ccc(/C(=N/Nc2ccccn2)c2ncccn2)cc1" inactive

Tell me the recorded outcome of this test for "O=C(O)CSc1nnc(COc2ccccc2)n1-c1ccccc1" . inactive

Could you please tell me the result logged for "NC(=O)ON=C1CCN(Cc2ccccc2)CC1" in this assay? inactive

Name the outcome recorded for "COc1ccccc1NC(=O)C1=C(C)NC(C)=C(C(=O)Nc2ccccc2OC)C1c1ccccc1OC" in the assay. inactive

What outcome does the record of this test show for "S=C1SC(=N\c2ccccc2)/C(=N/c2ccccc2)N1c1ccc2ccccc2c1" ? inactive
